We begin with a simple list: items and their reported pIC50.
# Test system: PC-3
# Protocol text: Cytotoxicity against human PC3 cells after 48 hrs
# Format: functional, cell-based
# Test settings: PC-3, 48 h
# reply with the number alone; pIC50 is -log10 of concentration in mol/L

# example entries with known answers
C=C(C)[C@@H]1CC[C@]2(C(=O)O[C@@H]3O[C@H](CO)[C@@H](O)[C@H](O)[C@H]3O)CC[C@]3(C)[C@H](CC[C@@H]4[C@@]5(C)CC[C@H](O[C@@H]6OC[C@H](O)[C@H](O)[C@H]6O)C(C)(C)[C@@H]5CC[C@]43C)[C@@H]12	4.17
C=C(C)[C@@H]1CC[C@]2(CO)CC[C@]3(C)[C@H](CC[C@@H]4[C@@]5(C)CC[C@H](O)C(C)(C)[C@@H]5CC[C@]43C)[C@@H]12	4.75
COc1cc([C@@H]2c3cc4c(cc3[C@@H](O[C@@H]3O[C@@H]5CO[C@@H](C)O[C@H]5[C@H](O)[C@H]3O)[C@H]3COC(=O)[C@H]23)OCO4)cc(OC)c1O [ETOPOSIDE]	5.77

Please look at the following compound next.
Using the record for "C=C(C)[C@@H]1CC[C@]2(CO[C@@H]3O[C@H](CO)[C@@H](O)[C@H](O)[C@H]3O)CC[C@]3(C)[C@H](CC[C@@H]4[C@@]5(C)CC[C@H](O[C@@H]6O[C@@H](C)[C@H](O)[C@@H](O)[C@H]6O)C(C)(C)[C@@H]5CC[C@]43C)[C@@H]12" , report its pIC50.
5.16

====

We begin with a simple list: items and their reported IC50.
# Tested on: PC-3
# Protocol text: Cytotoxicity against human PC3 cells after 48 hrs
# Assay type: functional, cell-based
# Test settings: PC-3, 48 h
Please give a number only; it is taken to be in µM.

# example entries with known answers
C=C(C)[C@@H]1CC[C@]2(CO[C@@H]3O[C@H](CO)[C@@H](O)[C@H](O)[C@H]3O)CC[C@]3(C)[C@H](CC[C@@H]4[C@@]5(C)CC[C@H](O[C@@H]6OC[C@H](O)[C@H](O)[C@H]6O)C(C)(C)[C@@H]5CC[C@]43C)[C@@H]12	5.3
C=C(C)[C@@H]1CC[C@]2(CO[C@@H]3O[C@@H](C)[C@H](O)[C@@H](O)[C@H]3O)CC[C@]3(C)[C@H](CC[C@@H]4[C@@]5(C)CC[C@H](O[C@@H]6O[C@@H](C)[C@H](O)[C@@H](O)[C@H]6O)C(C)(C)[C@@H]5CC[C@]43C)[C@@H]12	1.8
C=C(C)[C@@H]1CC[C@]2(C(=O)O)CC[C@]3(C)[C@H](CC[C@@H]4[C@@]5(C)CC[C@H](O)C(C)(C)[C@@H]5CC[C@]43C)[C@@H]12	40

Using the record for "C=C(C)[C@@H]1CC[C@]2(C(=O)O[C@@H]3O[C@@H](C)[C@H](O)[C@@H](O)[C@H]3O)CC[C@]3(C)[C@H](CC[C@@H]4[C@@]5(C)CC[C@H](O[C@@H]6O[C@@H](C)[C@H](O)[C@@H](O)[C@H]6O)C(C)(C)[C@@H]5CC[C@]43C)[C@@H]12" , report its IC50.
7.2

====

# Test system: MCF7
# Protocol text: Cytotoxicity against human MCF7 cells after 48 hrs
# Format: functional, cell-based
# Test settings: MCF7, 48 h
Readout type: IC50 (µM)
Please give a number only; it is taken to be in µM.

C=C(C)[C@@H]1CC[C@]2(CO[C@@H]3O[C@H](CO)[C@@H](O)[C@H](O)[C@H]3O)CC[C@]3(C)[C@H](CC[C@@H]4[C@@]5(C)CC[C@H](O[C@@H]6OC[C@H](O)[C@H](O)[C@H]6O)C(C)(C)[C@@H]5CC[C@]43C)[C@@H]12	9.5

Using the record for "C=C(C)[C@@H]1CC[C@]2(C(=O)O[C@@H]3O[C@@H](C)[C@H](O)[C@@H](O)[C@H]3O)CC[C@]3(C)[C@H](CC[C@@H]4[C@@]5(C)CC[C@H](O[C@@H]6O[C@@H](C)[C@H](O)[C@@H](O)[C@H]6O)C(C)(C)[C@@H]5CC[C@]43C)[C@@H]12" , report its IC50.
6
